Experiment: RP, Hichrom Alltima HP C18, 150 × 2.1 mm, 3 µm, 0.2 mL/min, estimated dead time 1.7 min; A: 90% water + 5% acetonitrile + 5% formic acid; B: acetonitrile; gradient (min/%B) 0/0 5/10 25/20 30/25 45/70 65/0
Settings: stereoisomer not certain
Consider the following compounds; for each one, report its LC retention time.
Answers are plain numbers, in min.

LC retention time for O=C(O)C1OC(Oc2c(-c3ccc(O)c(O)c3)oc3cc(O)cc(O)c3c2=O)C(O)C(O)C1O (configuration not stated) [quercetin glucuronide] is 20

// COc1cc(-c2oc3cc(=O)cc(O)c-3cc2OC2OC(CO)C(O)C(O)C2O)cc(OC)c1O (configuration not stated) [malvidin-3-O-glucoside] : LC retention time value = 18

So for O=C(O)CC(O)(CC(=O)O)C(=O)O , the logged LC retention time turned out to be 3.04

Return reported LC retention time values for all items listed beneath this line.
1. OCC1OC(Oc2cc3c(O)cc(O)cc3[o+]c2-c2cc(O)c(O)c(O)c2)C(O)C(O)C1O (configuration not stated) [delfinidin-3-O-glucoside]
2. O=C(OC1OC(CO)C(O)C(O)C1O)c1cc(O)c(O)c(O)c1 (configuration not stated)
3. COc1cc(-c2[o+]c3cc(O)cc(O)c3cc2OC2OC(CO)C(O)C(O)C2O)ccc1O (configuration not stated) [peonidin-3-O-glucoside]
4. NC(CCC(=O)NC(CS)C(=O)NCC(=O)O)C(=O)O (configuration not stated)

Result:
12.5
3.53
17.2
3.04

* * *

Please respond with reported LC retention time for every item in the list.
Experiment: RP, Hichrom Alltima HP C18, 150 × 2.1 mm, 3 µm, 0.2 mL/min, estimated dead time 1.7 min; A: 90% water + 5% acetonitrile + 5% formic acid; B: acetonitrile; gradient (min/%B) 0/0 5/10 25/20 30/25 45/70 65/0
Conditions: stereoisomer not certain
Give bare numbers, in min.

// worked examples, LC retention time included
What the record says about OCC1OC(OC2(CO)OC(CO)C(O)C2O)C(O)C(O)C1O (stereo not given) [di-hexose (sucrose)] : LC retention time is 2.52

Lab book: LC retention time of NC(Cc1cn(C2OC(CO)C(O)C(O)C2O)c2ccccc12)C(=O)O (stereo not given) [tryptophan-N-glucoside] noted as 15.8

Entry under test: O=C(O)C(O)C(O)C(=O)O (stereo not given) . Its LC retention time was 2.52

Looking up O=C(O)C(O)C(O)C(O)C(O)CO (stereo not given) , I found its LC retention time recorded as 2.37

Now for another entry.
LC retention time recorded for this molecule, OCC1OC(O)C(O)C(O)C1O (stereo not given) [hexose] , is 2.4

* * *

Experiment: RP, Hichrom Alltima HP C18, 150 × 2.1 mm, 3 µm, 0.2 mL/min, estimated dead time 1.7 min; A: 90% water + 5% acetonitrile + 5% formic acid; B: acetonitrile; gradient (min/%B) 0/0 5/10 25/20 30/25 45/70 65/0
Settings: stereoisomer not certain
reported_property: LC retention time (min)
Numbers only, in min.

Worked cases, LC retention time given:
Value of measured LC retention time for the entry O=C(O)CC(O)C(=O)O (stereo not given) : 2.72

Record O=C(C=Cc1ccc(O)cc1)OCC1OC(Oc2cc3c(O)cc(=O)cc-3oc2-c2ccc(O)c(O)c2)C(O)C(O)C1O (stereo not drawn) [cyanidin-(coumaroyl)-3-O glucoside, trans isomer] , field LC retention time: 27.6

GET /value?item= CC1OC(OC2C(=O)c3c(O)cc(O)cc3OC2c2ccc(O)c(O)c2)C(O)C(O)C1O (stereo not given) [dihydroquercetin-O-deoxyhexoside (astilbin)] &field=LC retention time returns 19.8

Documented LC retention time of OCC1OC(Oc2cc3c(O)cc(O)cc3[o+]c2-c2ccc(O)c(O)c2)C(O)C(O)C1O (stereo not given) [cyanidin-3-O-glucoside] : 14.4

Proceeding to the next compound to report its LC retention time.
# LC retention time of COc1cc(-c2[o+]c3cc(O)cc(O)c3cc2OC2OC(CO)C(O)C(O)C2O)cc(O)c1O (stereo not given) [petunidin-3-O-glucoside] = 15.6
